Entries and their kon values follow.
Target: Recombinant human his-tagged IGF 1R extracellular domain protein (human) (UniProt P08069)
Assay: SPR, captured IgG, IGF-1R ECD-his analyte, dissociation pH 7.4
// units = M⁻¹ s⁻¹; emit number, no label

VRDN-02552 (antibody, V domains shown) VH: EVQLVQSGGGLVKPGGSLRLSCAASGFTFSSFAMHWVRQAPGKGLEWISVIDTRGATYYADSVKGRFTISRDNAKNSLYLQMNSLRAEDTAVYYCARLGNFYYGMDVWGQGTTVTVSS VL: EIVLTQSPGTLSVSPGERATLSCRASQSIGSSLHWYQQKPGQAPRLLIKYASQSLSGIPDRFSGSGSGTDFTLTISRLEPEDFAVYYCHQSSRLPHHFGQGTKVEIK = 32200

Challenge: Endpoint output: kon of VRDN-02528 (antibody, V domains shown) VH: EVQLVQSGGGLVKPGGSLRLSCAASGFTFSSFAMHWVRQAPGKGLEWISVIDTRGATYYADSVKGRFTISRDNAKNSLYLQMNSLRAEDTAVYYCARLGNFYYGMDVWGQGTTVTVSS VL: EIVLTQSPGTLSVSPGERATLSCHASQSIGSSLHWYQQKPGQAPRLLIKYASQSLSGIPDRFSGSGSGTDFTLTISRLEPEDFAVYYCHQSSRLPHTFGQGTKVEIK . Value?
Response given: 141000

Challenge: Fill blank: measured kon of the binder VRDN-02514 (antibody, V domains shown) VH: EVQLVQSGGGLVKPGGSLRLSCAASGFTFSSFAMHWVRQAPGKGLEWISVIDTRGHTYYADSVKGRFTISRDNAKNSLYLQMNSLRAEDTAVYYCARLGNFYYGMDVWGQGTTVTVSS VL: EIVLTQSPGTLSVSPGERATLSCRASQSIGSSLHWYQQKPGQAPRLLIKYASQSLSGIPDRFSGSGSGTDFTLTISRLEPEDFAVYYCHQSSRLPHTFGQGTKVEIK is ____.
Response given: 108000
